Tested on: MDA-MB-468 multi-cell spheroids, viability
MEASUREMENT_NOTES: Anticancer human tumor MDA-MB-468 cell line growth inhibition [IpAb];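 further: spheroids exposed to agents for seven days; 100% = DMSO vehicle control viability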
PARTICULARS: second compound 0.316 µM; first compound 0.316 µM; stronger effect = lower value
Please respond with reported viability, T/C for every item in the list.
Please give a number only; it is taken to be in %.

Endpoint output: viability, T/C of COc1c(OCCCN2CCOCC2)ccc2c3n(c(=NC(=O)c4cnc(N)nc4)nc12)CCN3 + CCN1CCN(Cc2ccc(Nc3ncc(F)c(-c4cc(F)c5nc(C)n(C(C)C)c5c4)n3)nc2)CC1 . Value?
21.2

Then C=CCn1c(=O)c2cnc(Nc3ccc(N4CCN(C)CC4)cc3)nc2n1-c1cccc(C(C)(C)O)n1 + CC(C)NCC(C(=O)N1CCN(c2ncnc3c2C(C)CC3O)CC1)c1ccc(Cl)cc1 ?
42.6

Then Cn1nccc1Nc1nccc(-c2ccn(C(CO)c3ccc(Cl)c(F)c3)c(=O)c2)n1 (stereo not given) + CCN1CCN(Cc2ccc(Nc3ncc(F)c(-c4cc(F)c5nc(C)n(C(C)C)c5c4)n3)nc2)CC1 ?
89.2

Then CC1(C)CCC(CN2CCN(c3ccc(C(=O)NS(=O)(=O)c4ccc(NCC5CCOCC5)c([N+](=O)[O-])c4)c(Oc4cnc5[nH]ccc5c4)c3)CC2)=C(c2ccc(Cl)cc2)C1 + CCN1CCN(Cc2ccc(Nc3ncc(F)c(-c4cc(F)c5nc(C)n(C(C)C)c5c4)n3)nc2)CC1 ?
94.9

Then COc1c(OCCCN2CCOCC2)ccc2c3n(c(=NC(=O)c4cnc(N)nc4)nc12)CCN3 + CC(C)NCC(C(=O)N1CCN(c2ncnc3c2C(C)CC3O)CC1)c1ccc(Cl)cc1 ?
18.1
